# tgt: human GcgR (Homo sapiens)
# Sequence (P47871 26-477): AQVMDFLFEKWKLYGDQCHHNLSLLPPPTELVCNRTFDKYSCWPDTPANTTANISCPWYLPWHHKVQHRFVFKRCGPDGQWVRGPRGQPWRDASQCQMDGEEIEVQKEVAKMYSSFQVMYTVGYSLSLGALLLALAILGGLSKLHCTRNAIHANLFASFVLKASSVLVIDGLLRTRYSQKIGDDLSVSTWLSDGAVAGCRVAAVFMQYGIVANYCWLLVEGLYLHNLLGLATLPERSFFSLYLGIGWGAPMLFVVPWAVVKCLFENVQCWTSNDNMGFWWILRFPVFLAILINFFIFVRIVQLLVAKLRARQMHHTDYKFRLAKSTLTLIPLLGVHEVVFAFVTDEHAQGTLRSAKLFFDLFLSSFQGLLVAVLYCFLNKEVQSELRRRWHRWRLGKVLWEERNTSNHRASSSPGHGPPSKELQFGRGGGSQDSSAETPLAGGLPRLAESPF
# assay-summary: Functional cAMP activity in the presence of 1% HSA
# Type: cell-based
# experimental-setup: read-out: cAMP Rel EC50, hGcgR
Starred links: 1 amine or outer side, 2 acyl side, 3 side chain; linkers in the order of their positions; H or OH if unused. Non-standard residues stand in square brackets, D forms with d. Groups on a side chain read outwards from the residue. No end group written: not given here. *: point of attachment. C18 diacid = O=C(O)CCCCCCCCCCCCCCCCC(=O)*; αMePhe(2-F) = C[C@](N)(Cc1ccccc1F)C(=O)O; γGlu = O=C(O)[C@H](CCC(=O)[*:2])N[*:1]; αMe4Pal = C[C@](N)(Cc1ccncc1)C(=O)O; αMeY = C[C@](N)(Cc1ccc(O)cc1)C(=O)O; 4Pal = N[C@@H](Cc1ccncc1)C(=O)O; αMeL = CC(C)C[C@](C)(N)C(=O)O; αMeS = C[C@](N)(CO)C(=O)O; Orn = NCCC[C@H](N)C(=O)O; AEEA = NCCOCCOCC(=O)O; Aib = CC(C)(N)C(=O)O
measured-property: pEC50
# pEC50 is unitless: minus log10 of the molar concentration; print number only

Asked: Endpoint output: pEC50 of H-Y[Aib]QGT[αMePhe(2-F)]TSD[4Pal][αMeS]I[αMeL]LD[Orn]K([γGlu-γGlu-C18 diacid])AQ[Aib][Orn]FI[dE][αMeY]LSEGGPSSGEPPPSGTEEE-NH2 [Example 562] . Value?
Given back: 6.37

Asked: What about Y[Aib]QGT[αMePhe(2-F)]TSD[4Pal][αMeS]I[αMeL]LD[Orn]K([AEEA-γGlu-C18 diacid])AQ[αMe4Pal]EFI[dE][αMeY]LIEGGPSSGAPPPESE-NH2 [Example 1146] ?
Given back: 6.70

Asked: What about H-Y[Aib]QGTFTSD[4Pal]SQ[αMeL]LDKK([γGlu-γGlu-C18 diacid])AQ[αMe4Pal]AFIE[αMe4Pal]LIEGGPSSGAPPPSGS-NH2 [Example 951] ?
Given back: 6.18

Source listed as patent US20240270821A1.
